We begin with a simple list: items and their reported TGI.
# Tested on: EKVX NSCLC
# assay-method-text: NCI tumour cell line growth inhibition, 48 h

[
  {
    "molecule": "O=c1oc(-c2ccccc2)c(-c2ccccc2)n1-c1ccc(Br)cc1",
    "property-name": "TGI",
    "result": "> 100 µM"
  },
  {
    "molecule": "Nc1ncnc2c1cnn2Cc1cn(COCC(O)CO)nn1 (stereo not given)",
    "property-name": "TGI",
    "result": "> 100 µM"
  },
  {
    "molecule": "CS/C(C)=N/OC(=O)NCCCCNc1ccc(N=[N+]=[N-])cc1",
    "property-name": "TGI",
    "result": "> 100 µM"
  }
]

Read the next record carefully.
Query block: What does the record list as TGI for c1ccc(C2OCC(OC3CCCCO3)CO2)cc1 (stereo not given) ?
Result block: > 100 µM

###

# Test system: IGROV1 ovarian
# assay-method-text: NCI tumour cell line growth inhibition, 48 h
Readings of TGI for the listed compounds
# value in µM; strip the unit string

Answered examples (2):
[
  {
    "record-smiles": "CCCCOCCOC1=CC(=O)c2c(O)ccc(O)c2C1=O",
    "numeric-result": 3.35
  },
  {
    "record-smiles": "COc1cc(C(=O)/C=C/c2cccnc2Nc2ccccc2)cc(OC)c1OC",
    "numeric-result": 5.3
  }
]

Query block: TGI for `CCN(CC)c1ccc(C(=N)c2ccc(N(C)C)cc2)cc1` ?
Result block: 13

Query block: Next up: `O=C(OCCBr)c1ccc(Cl)c([N+](=O)[O-])c1`
Result block: 37.6

Query block: Note, next up: `Cc1ccc2c(c1)C(=O)c1c-2n(CCCBr)c(=O)c2cc([N+](=O)[O-])ccc12`
Result block: 65.8

###

# System: OVCAR-4 ovarian
# assay-method-text: NCI tumour cell line growth inhibition, 48 h
TGI reference

Solved entries:
[
  {
    "compound": "CC(C)C[C@H](NC(=O)[C@@H](O)[C@H](N)Cc1ccc([N+](=O)[O-])cc1)C(=O)O",
    "property-name": "TGI",
    "result": "> 25 µM"
  },
  {
    "compound": "Nc1cc(N)c2nc(-c3ccccc3)c(NCc3ccc(F)cc3)nc2c1",
    "property-name": "TGI",
    "result": "8.08 µM"
  },
  {
    "compound": "O=c1[nH]c(-c2ccc(-c3nc4cc([N+](=O)[O-])ccc4c(=O)[nH]3)cc2)nc2cc([N+](=O)[O-])ccc12",
    "property-name": "TGI",
    "result": "> 100 µM"
  }
]

Query block: Recorded TGI for Cc1ccc(S(=O)(=O)n2c3c(c4ccccc42)CCN2CCC(Br)C[C@@H]32)cc1 (stereo partly specified) , please?
Result block: 27 µM

Query block: Moving on to `CCc1nnc(-c2nsc3ccccc23)s1`
Result block: > 100 µM

###

# Test system: MDA-N
# assay-method-text: NCI tumour cell line growth inhibition, 48 h
Each record here notes measured TGI.

Previously resolved entries follow.
[
  {
    "molecule": "COC(=O)[C@@]12C(=O)C(C)C(=O)[C@]1(C)C(C)=C[C@H]1[C@]3(C=O)CC[C@H](OC(C)=O)C(C)(C)[C@H]3CC[C@@]12C (stereo not given in full)",
    "TGI": "> 100 µM"
  },
  {
    "molecule": "Cc1ccc(Nc2nc(NS(=O)(=O)c3cc(C(=O)Nc4ccc(Cl)cc4)c(Cl)cc3S)n[nH]2)cc1",
    "TGI": "> 100 µM"
  },
  {
    "molecule": "O=C1/C(=C/c2c(Cl)[nH]c3ccccc23)c2ccccc2N1c1ccccc1",
    "TGI": "3.8 µM"
  },
  {
    "molecule": "CSC1(SC2=NCCN2)SC2(NCCN2)S1",
    "TGI": "49.1 µM"
  },
  {
    "molecule": "OCC1OC(n2cnc3c(=S)nc[nH]c32)C(O)C1O (stereo not given)",
    "TGI": "> 2500 µM"
  }
]

Query block: Provide value of TGI for this record tested with MDA-N: `CCOc1ncn(-c2ccc(NC(=S)NC34CC5CC(CC(C5)C3)C4)cc2)n1`
Result block: > 100 µM

Query block: Next up: `CC(C)/C(Cl)=N\OC(=O)Nc1ccc(F)cc1F`
Result block: 22.7 µM

Query block: Item: `COC(=O)C1=C(C)NC(C)=C(C(=O)OC)C1c1cccc(NO)c1`
Result block: 28.5 µM

Query block: Note, next up: `Cn1c(=O)c2c(ncn2CCCCOc2ccc3c(c2)[n+]([O-])nc(N)[n+]3[O-])n(C)c1=O`
Result block: > 100 µM

Query block: Subsequent entry: `CN(C)CCn1c(=O)c2ccc3c4c(nn3CCN(C)C)c3cc(O)ccc3n(c1=O)c24`
Result block: 0.603 µM
